Data provenance is PubChem BioAssay.

- experiment: small-molecule binders of probe aInhba, primary screen, biochemical, small-molecule microarray, 635/667 nm fluorescence (AID 1148);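 further: score merges 667nm spot fluorescence with signal-to-noise for antibody binding to printed compounds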
- details: higher = more signal
Please provide measured composite z-score for the entries that follow.
Numbers only.

Please review the entries below; each comes with its answer.
CCCCC(CC)C(O)C1C=CC2C(=O)N(c3ccccc3)C(=O)C2N1Nc1ccccc1 (centres undefined) : 0.103
C=C[C@H](C)[C@@H](O)c1ccc(O)c2ccccc12 : -0.0471
C=C[C@@H](COC(C)=O)N(Cc1ccccc1[N+](=O)[O-])S(=O)(=O)c1ccc(Br)cc1 : -0.104

Form field: reported composite z-score of `O=C1O[C@@H](c2ccccc2)[C@@H](c2ccccc2)N2[C@@H](c3ccccc3OCCO)[C@]3(C(=O)Nc4ccc(C#CC5(O)CCCCCC5)cc43)[C@@H](C(=O)Nc3nc4ccccc4s3)[C@H]12` -0.0195

====

Provide the recorded z-score for the entries that follow.
- subject.of.test: NADPH oxidase 2 (Homo sapiens)
- experiment: NOX2-dependent H2O2 signal modulators, primary screen, NOX inhibitor project, cell-based, HEK293-NOX2, PMA-stimulated, Amplex Red fluorescence (AID 1159); further: test concentration not given here
- details: 45 min, higher = more signal, called active from +8 up or from −8 down
The source made the active and inactive calls.

// worked examples, z-score included
C=CCNC(=O)[C@@H]1[C@H]2C(=O)O[C@H](c3ccccc3)[C@H](c3ccccc3)N2[C@H](c2ccccc2OCCO)[C@@]12C(=O)Nc1ccc(C#CC3=CCCCC3)cc12 : 0.646 (inactive)
C=CCOC(=O)[C@@H]1[C@H]2C(=O)O[C@H](c3ccccc3)[C@H](c3ccccc3)N2[C@H](c2ccc(OCCOC(=O)[C@@H]3C[C@@H]4C(=O)NCC(=O)N4[C@@H]3c3cccc(OCCO)c3)cc2)[C@@]12C(=O)Nc1ccc(I)cc12 : 1.72 (inactive)
C=CCOC(=O)[C@H]1[C@@H]2C(=O)O[C@@H](c3ccccc3)[C@@H](c3ccccc3)N2[C@@H](c2ccc(OCCOC(=O)[C@@H]3C[C@@H]4C(=O)N5CCC[C@H]5C(=O)N4[C@@H]3c3ccc(O)cc3)cc2)[C@]12C(=O)Nc1ccccc12 : 1.64 (inactive)
O=c1cccc(C=Cc2ccccc2)o1 : 0.165 (inactive)
C=CCC(OC(C)=O)[C@@H]1[C@@H](N(Cc2ccc(-c3ccccc3)cc2)C(=O)Cc2ccc(OC)cc2)c2cc(OCCCO)ccc2N1C(=O)c1ccc2ccccc2n1 (some centres not stated) : -2.73 (inactive)
CCC(CC)C(O)C1C=CC2C(=O)N(c3ccccc3)C(=O)C2N1Nc1ccc(C#N)cc1 (configuration not stated) : -1.49 (inactive)
COC(=O)C[C@@H]1C[C@H](C)[C@]2(O1)C(=O)N(Cc1ccccc1)c1ccc(NC(C)=O)cc12 : 0.627 (inactive)
O=C(O)[C@H]1C[C@H]2C(=O)NCC(=O)N2[C@H]1c1ccc(O)cc1 : -1.99 (inactive)

Hi! Can you tell me z-score for each of these compounds?
1. COCCCNC(=O)[C@@]1(C)c2ccccc2C(=O)N(Cc2cc(C(F)(F)F)cc(C(F)(F)F)c2)[C@H]1c1ccc(CO)cc1
2. COC(=O)C(CC#Cc1ccc2c(c1)[C@]1(C(=O)N2)[C@H](c2ccc(OCCO)cc2)N2[C@H](c3ccccc3)[C@H](c3ccccc3)OC(=O)[C@H]2[C@@H]1C(=O)NC[C@H](O)c1ccccc1)C(=O)OC
3. O=C1OCCC=C[C@H]2OC34C=CCN(c5ccc6ccccc6c5)C(=O)[C@H]3N(CCCCCO)C(=O)[C@@H]4C12 (some centres not stated)
4. CC(C)(C)OC(=O)CC[C@@]1(C(=O)NCCN2CCOCC2)N=C(c2ccc(OCCCO)cc2)O[C@@H]1c1ccccc1
5. CN1CCC(CCCO)=CC1c1ccc(CN2CCCC2)cc1 (configuration not stated)

-1.09 (inactive)
2.1 (inactive)
1.95 (inactive)
0.63 (inactive)
-3.22 (inactive)

Here are 8 compounds. What values of z-score were reported for them?
1. COC(=O)[C@@]1(Cc2ccc(OC)cc2)[C@H]2c3cc(C(=O)N(C)C)n(Cc4c(OC)[nH]cc(C)c4=O)c3C[C@H]2CN1C(=O)c1ccccc1
2. CCOC(=O)C[C@H]1[C@H](OC(=O)c2ccc(-c3ccccc3)cc2)[C@@H](NC(=O)c2ccc3ccccc3c2)c2cc(OCCCO)ccc2N1C(=O)Cc1ccc(OC)cc1
3. O=C(CS)NCCCCCCNC(=O)[C@@H]1C[C@@H]2C(=O)N3CCC[C@H]3C(=O)N2[C@@H]1c1ccc(O)cc1
4. CCOC(=O)C1=CCC(c2ccc([N+](=O)[O-])cc2)N(S(=O)(=O)c2ccc(C)cc2)C1 (configuration not stated)
5. CC(C)(C)N1CC=CC23O[C@@H]4C=CCOC(=O)[C@@H]4[C@H]2C(=O)N(CCCCCO)[C@@H]3C1=O (some centres not stated)
6. CCCCCCCCCCC(O)C1C=CC2C(=O)N(Cc3ccccc3)C(=O)C2N1n1cnnc1 (configuration not stated)
7. Cc1ccc(S[C@]2(C(=O)NCCN3CCOCC3)CC(=O)N(Cc3cc(C(F)(F)F)cc(C(F)(F)F)c3)[C@@H]2c2ccc(CO)cc2I)cc1
8. COc1ccc(C(O)C2C=CC3C(=O)NC(=O)C3N2Nc2ccccn2)cc1OCc1ccccc1 (configuration not stated)

["0.689 (inactive)", "-1.1 (inactive)", "0.489 (inactive)", "1.07 (inactive)", "1.27 (inactive)", "-2.6 (inactive)", "2.05 (inactive)", "-1.49 (inactive)"]

Batch request: z-score per item, same order as input.
1. COCCOC(=O)N1C(=O)[C@@]2(c3cc(C#CCC(C(=O)OC)C(=O)OC)ccc31)[C@H](c1ccccc1OCCO)N1[C@H](c3ccccc3)[C@H](c3ccccc3)OC(=O)[C@H]1[C@@H]2C(=O)N1CCc2cc(OC)c(OC)cc2C1
2. CCCCC(CC)C(O)C1C=CC2C(=O)N(c3ccccc3)C(=O)C2N1Nc1ccccc1 (configuration not stated)
3. O=C1OCC=C[C@H]2OC34C=CCN(c5ccc6ccccc6c5)C(=O)[C@H]3N(CCCO)C(=O)[C@@H]4[C@@H]12 (some centres not stated)
4. C=CCOC(=O)[C@@H]1[C@H]2C(=O)O[C@H](c3ccccc3)[C@H](c3ccccc3)N2[C@H](c2ccc(OCCOC(=O)[C@@H]3C[C@@H]4C(=O)N[C@@H](Cc5ccccc5)C(=O)N4[C@@H]3c3cccc(OCCO)c3)cc2)[C@@]12C(=O)Nc1ccc(I)cc12
5. Cc1ccc(S[C@]2(C(=O)NCC(C)C)CC(=O)N(Cc3ccccc3)[C@@H]2c2ccc(CO)cc2I)cc1
6. N#Cc1ccc(NN2C(C(O)c3ccc([N+](=O)[O-])cc3)C=CC3C(=O)N(c4ccccc4)C(=O)C32)cc1 (configuration not stated)

1: 1.26 (inactive); 2: -2.98 (inactive); 3: 1.09 (inactive); 4: 1.03 (inactive); 5: 1.09 (inactive); 6: -1.45 (inactive)
